Biological target: CDK2/CycA2 (Homo sapiens (Human), UniProt P24941)
Experiment: Radiometric protein kinase assay (33PanQinase), Assay Condition A (thiol containing)
Details: thiol containing (1.2 mM DTT), ATP 0.3 μM
Property name: IC50

// worked examples, IC50 included
C=CC(=O)Nc1ccc(C(=O)N2CCC[C@@H](Nc3ncc4ccc(=O)n(C(C)C)c4n3)C2)cc1 [Example 15]
10 to 30 µM
C=CC(=O)Nc1ccc(C(=O)N2C[C@H](Nc3ncc4ccccc4n3)[C@@H](F)C2)cc1 [Example 63]
10 to 30 µM
C=CC(=O)Nc1ccc(C(=O)N2CC[C@@H](Nc3ncc4cc(F)ccc4n3)C2)cc1F [Example 69]
1 to 10 µM
C=CC(=O)Nc1ccc(C(=O)N2CCC[C@@H](Nc3ncc4cc(OC)ccc4n3)C2)cc1 [Example 7]
30 to 100 µM
C=CC(=O)N1CCCc2cc(C(=O)N3CC[C@@H](Nc4ncc5ccccc5n4)C3)ccc21 [Example 79]
1 to 10 µM

For each of the items listed, what is its IC50?
1. CCC(=O)Nc1ccc(C(=O)N2CC[C@@H](Nc3ncc4ccc(=O)[nH]c4n3)C2)cc1 [Example 60]
2. C=CC(=O)Nc1ccc(C(=O)N2CCC[C@@H](Nc3ncc4cc(F)ccc4n3)C2)cc1 [Example 4]
3. C=CC(=O)Nc1ccc(C(=O)N2CC[C@@H](Nc3ncc4ccc(C(=O)NC)cc4n3)C2)cc1 [Example 40]

**A:**
1 to 10 µM
30 to 100 µM
≤ 0.1 µM

For each of the items listed, what is its IC50?
1. CCC(=O)Nc1ccc(C(=O)N2CC[C@@H](Nc3ncc4ccncc4n3)C2)cc1 [Example 50]
2. C=CC(=O)Nc1ccc(C(=O)N2CC[C@@H](Nc3ncc4ccc(S(C)(=O)=O)cc4n3)C2)cc1C [Example 93]
3. C=CC(=O)Nc1ccc(C(=O)N2CCC[C@@H](Nc3ncc4ccc(=O)[nH]c4n3)C2)cc1 [Example 16]
4. CCC(=O)Nc1ccc(C(=O)N2CC[C@@H](Nc3ncc4ccc(F)cc4n3)C2)cc1 [Example 54]
5. C=CC(=O)Nc1ccc(C(=O)N2CC[C@@H](Nc3ncc4cccc(F)c4n3)C2)cc1 [Example 90]
6. C=CC(=O)Nc1ccc(C(=O)N2CC[C@@H](Nc3ncc4cc(F)ccc4n3)C2)cc1C [Example 92]
7. C=CC(=O)Nc1ccc(C(=O)N2CC[C@@H](Nc3ncc4ccc(C(N)=O)cc4n3)C2)cc1 [Example 39]

**A:**
["1 to 10 µM", "0.1 to 1 µM", "30 to 100 µM", "1 to 10 µM", "1 to 10 µM", "1 to 10 µM", "≤ 0.1 µM"]

**Q:** So what's the measured IC50 for this one? C=CC(=O)Nc1ccc(C(=O)N2CC[C@@H](Nc3ncc4ccc(C(=O)N(C)C)cc4n3)C2)cc1 [Example 41]
**A:** 0.1 to 1 µM
